- System under test: Adenosine receptor A1 (Homo sapiens, UniProt P30542)
- Sequence (P30542 whole entry): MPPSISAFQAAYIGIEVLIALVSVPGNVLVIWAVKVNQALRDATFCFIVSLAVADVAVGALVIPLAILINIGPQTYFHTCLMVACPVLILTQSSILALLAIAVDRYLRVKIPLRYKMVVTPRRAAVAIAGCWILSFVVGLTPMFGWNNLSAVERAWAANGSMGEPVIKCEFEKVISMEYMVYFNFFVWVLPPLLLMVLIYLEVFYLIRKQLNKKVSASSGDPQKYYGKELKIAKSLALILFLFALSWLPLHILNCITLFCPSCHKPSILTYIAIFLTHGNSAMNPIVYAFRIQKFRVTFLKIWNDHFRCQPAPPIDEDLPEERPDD
- Protocol summary: Displacement of [3H]CCPA from recombinant human A1 receptor expressed in CHO cell membranes
pKi: −log10 of the molar value.
Measure: pKi

Some compounds with recorded pKi:
> print(dat)
                            compound.string                         system.under.test  readout.value
1  COc1ccc(-n2c(C(=O)c3sc(Nc4ccccc4)nc3-c3ccccc3)cnc2N)cc1  Adenosine receptor A1 (Homo sapiens, UniProt P30542)           5.44
2  CN(C)c1nc(NC(=O)c2ccccc2)sc1C(=O)c1cnc(N)n1-c1ccc(C(F)(F)F)cc1  Adenosine receptor A1 (Homo sapiens, UniProt P30542)           4.71
3  CN(C)c1nc(NC(=O)c2ccccc2)sc1C(=O)c1cnc(N)n1-c1ccc(Cl)cc1  Adenosine receptor A1 (Homo sapiens, UniProt P30542)           4.60
4  Cc1nc(Nc2ccccc2)sc1C(=O)c1cnc(N)n1-c1ccc(Cl)cc1  Adenosine receptor A1 (Homo sapiens, UniProt P30542)           4.47
5  COc1ccc(-n2c(C(=O)c3sc(Nc4ccccc4)nc3C)cnc2N)cc1  Adenosine receptor A1 (Homo sapiens, UniProt P30542)           4.31
6  Cc1ccc(Nc2nc(C)c(C(=O)c3cnc(N)n3-c3ccc(F)cc3)s2)cc1  Adenosine receptor A1 (Homo sapiens, UniProt P30542)           4.43
7  Cc1nc(Nc2ccccc2)sc1C(=O)c1cnc(N)n1-c1ccc(F)cc1  Adenosine receptor A1 (Homo sapiens, UniProt P30542)           4.41

(1) COc1ccc(-n2c(C(=O)c3sc(Nc4ccc(Cl)cc4)nc3C)cnc2N)cc1
(2) Cc1nc(Nc2ccc(Cl)cc2)sc1C(=O)c1cnc(N)n1-c1ccc(F)cc1
(3) Nc1ncc(C(=O)c2sc(Nc3ccccc3)nc2-c2ccccc2)n1-c1ccc(F)cc1
Order these by pKi, descending, and give the full ranking. // list labels; follow requested order
3, 2, 1

====

- System under test: UniProt:P0DMS8
- Sequence (whole entry): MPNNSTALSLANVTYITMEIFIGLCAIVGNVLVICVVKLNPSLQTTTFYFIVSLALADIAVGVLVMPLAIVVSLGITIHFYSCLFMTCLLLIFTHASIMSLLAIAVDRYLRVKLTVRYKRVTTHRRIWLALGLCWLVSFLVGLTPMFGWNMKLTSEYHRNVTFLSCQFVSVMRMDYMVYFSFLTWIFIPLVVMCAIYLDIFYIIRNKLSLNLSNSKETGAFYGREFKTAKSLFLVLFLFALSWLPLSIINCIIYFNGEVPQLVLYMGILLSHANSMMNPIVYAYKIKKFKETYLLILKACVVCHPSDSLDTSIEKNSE
- Protocol summary: Displacement of [3H]HEMADO from recombinant human A3 receptor expressed in CHO cell membranes
The source made the active and inactive calls. The rule behind the calls is not given here.
Thanks in advance; please answer with one of these: active, inactive

Example cases with answers are listed next.
> print(dat)
                           compound.string  class.assignment
1  COc1ccc(C(=O)c2cnc(N)n2-c2ccc(F)cc2)cc1          inactive
2  Cc1ccc(C(=O)c2cnc(N)n2-c2cccc(Cl)c2)cc1            active
3    Cc1ccc(C(=O)c2cnc(N)n2-c2ccccc2Cl)cc1            active
4  Cc1ccc(C(=O)c2cnc(N)n2-c2ccc(Cl)cc2)cc1          inactive
5  Nc1ncc(C(=O)c2ccc(Cl)cc2)n1-c1ccc(F)cc1          inactive

For Cc1ccc(C(=O)c2cnc(N)n2-c2ccc(F)cc2)cc1 , which call appears in the assay record?
inactive

Here is the next molecule: Nc1ncc(C(=O)c2ccc(Cl)cc2)n1-c1ccc(C(F)(F)F)cc1
active

And then CS(=O)(=O)c1ccc(C(=O)c2cnc(N)n2-c2ccccc2)cc1 , what is it?
active

Same lookup for Nc1ncc(C(=O)c2ccc(Cl)cc2)n1-c1ccc(F)c(Cl)c1 , please.
active

Input Nc1ncc(C(=O)c2ccncc2)n1-c1ccc(Cl)cc1
active
